Reference source for all entries: patent US20180258158A1

tgt: T1, mouse serum albumin (MSA), full length (mouse, UniProt P07724 25-608)
T1 construct: mature; Immobilized on CM5 chip (SPR) or coated on plates (ELISA); also called mouse albumin; murine serum albumin
measurement.description: direct binding ELISA, coated MSA, anti-His-HRP
Set-up: unit not given here
endpoint.name: MSA DB ELISA (OD450) Ymax obs

a = ADX_6727_D10 (Q33D/K85T) (designed binder, Full His6-tagged entry) MGVSDVPRDLEVVAATPTSLLISWDAPAVTVRYYRITYGREVDKYSDLGPLYIYQEFTVPGSKSTATISGLKPGVDYTITVYAVTGSGESPASSTPISINYRTEIDKPSQHHHHHH
b = ADX_6727_F06 (L41A/K85T) (designed binder, Full His6-tagged entry) MGVSDVPRDLEVVAATPTSLLISWDAPAVTVRYYRITYGREVQKYSDLGPAYIYQEFTVPGSKSTATISGLKPGVDYTITVYAVTGSGESPASSTPISINYRTEIDKPSQHHHHHH
Task item: Lowest MSA DB ELISA (OD450) Ymax obs? choose a or b # answer = label of selected item
Reply: a
